# System: MDA-MB-468 breast
# test summary: NCI-60 one-dose screen, 48 h
# test parameters: 10 µM unless noted
Compounds without any hit were thinned out: in the full panel of roughly 83,000, 20% have a hit. The source made the active and inactive calls. The calls were made as follows: active = growth percent below 10; inactive = the rest.
Allowed answers: YES for active, NO for inactive

[
  {
    "compound": "OCCCCCNC1CCCCC1",
    "category": "NO"
  },
  {
    "compound": "O=C=Nc1ccc(Br)cc1",
    "category": "NO"
  },
  {
    "compound": "CN1C(=O)C23CC4(C56CC78SSC(CO)(C(=O)N7C5Nc5ccccc56)N(C)C8=O)c5ccccc5NC4N2C(=O)C1(CO)SS3 (stereo unspecified)",
    "category": "YES"
  },
  {
    "compound": "O=[N+]([O-])c1cc(Br)c(O)c(Br)c1",
    "category": "NO"
  },
  {
    "compound": "CC(=O)O[C@H](C[C@H](C(C)C)N(C)C(=O)[C@@H](NC(=O)[C@H]1CCCCN1C)C(C)C)c1nc(C(=O)N[C@@H](Cc2ccccc2)C[C@H](C)C(=O)O)c(C)s1",
    "category": "NO"
  }
]

Okay, now this compound:
How did this test come out for COc1ccc(/C=C\c2cc(OC)c(OC)c(OC)c2)cc1N/C=C\C(=O)c1c[nH]c2ccccc12 ?
NO

###

# System: HL-60(TB) leukemia
# test summary: NCI-60 one-dose screen, 48 h (100 = growth as untreated, 0 = no growth, -100 = all killed)
# test parameters: 10 µM unless noted
# Description: Growth inhibition of the HL-60(TB) human tumor cell line is measured as a screen for anti-cancer activity. Cells are grown in 96 well plates and exposed to the test compound for 48 hours. Compounds are tested at a single concentration, which is 10^-5 M for most compounds. The reported endpoint is percent growth (GI% or GIPRCNT), where numbers from 0 - 100% represent growth inhibition, and numbers from -100% - 0 represent cell death. For example, a value of 40 represents 60% growth inhibition. […]
The panel holds about 83,000 compounds, 20% with a hit somewhere; the sample as a whole holds those more often.
Provide the recorded growth for the entries that follow.
Answers are plain numbers, in %.

[
  {
    "structure": "O=c1[nH]c2ccc(Cl)cc2cc1CSc1nccc(-c2ccc(Cl)cc2)n1",
    "observed result": 102
  },
  {
    "structure": "CCOc1ccccc1NC(=O)N/C(N)=N/c1nc2ccccc2s1",
    "observed result": -23.4
  }
]

Can you give me growth for all of these, one by one?
1. CCCCSc1nc(NCCc2c[nH]c3ccccc23)c(C#N)c(-c2ccc(F)cc2)n1
2. O=c1oc2ccc(-c3ccc(F)cc3F)cc2c(=O)n1-c1ccc(Cl)c(C(F)(F)F)c1
3. O=c1c2ccccc2nc(COc2ccccc2)n1/N=C/c1ccc(N2CCCC2)cc1

[53.8, 1.38, 101]

###

# System: HCT-116 colon
# test summary: NCI-60 one-dose screen, 48 h
# test parameters: 10 µM
The panel holds about 83,000 compounds, 20% with a hit somewhere; the sample as a whole holds those more often. Activity calls are given as the source filed them. How the source made its calls: active means growth percent below 10; inactive means the rest.
Hello, when you answer, please use one of the following outcomes: 1 = active, -1 = inactive

Completed entries (count: 5):
[
  {
    "structure": "C[C@H]1[C@H](OC(=O)CCC(=O)N(CCCc2cn(-c3ccc(CN4CCOCC4)cc3)nn2)CCNc2ccnc3cc(Cl)ccc23)O[C@@H]2OC3(C)CC[C@H]4[C@H](C)CC[C@@H]1[C@@]24OO3",
    "category": 1
  },
  {
    "structure": "COc1ccc(/C=C/C(=O)c2nc3ccccc3n2Cc2ccc(Br)cc2)cc1",
    "category": -1
  },
  {
    "structure": "O=C(/C=C/c1ccc(F)cc1)c1nc2ccccc2n1Cc1ccc(F)cc1",
    "category": 1
  },
  {
    "structure": "C=CC[Se]C(=O)c1ccc(C(=O)[Se]CC=C)s1",
    "category": 1
  },
  {
    "structure": "CCOP(=O)(CC(F)(F)C(F)(F)F)OCC",
    "category": 1
  }
]

# lookup: test call for CC[C@]12C=CCN3CC[C@@]4(c5ccc(OC)cc5N(C)[C@H]4[C@@](O)(C(=O)OC)[C@@H]1OC(=O)CCCC[P+](c1ccc(C)cc1)(c1ccc(C)cc1)c1ccc(C)cc1)[C@@H]32
1

// next record O=C(/C=C/c1ccc(F)cc1)c1nc2ccccc2n1Cc1ccc(Br)cc1
1

Quick one: CC[C@]12C=CCN3CC[C@@]4(c5ccc(OC)cc5N(C)[C@H]4[C@@](O)(C(=O)OC)[C@@H]1OC(=O)CCCC[P+](c1ccc(OC)cc1)(c1ccc(OC)cc1)c1ccc(OC)cc1)[C@@H]32
1

###

# Test system: NCI-H226 lung
# test summary: NCI-60 one-dose screen, 48 h
# test parameters: 10 µM
# Experimental: Growth inhibition of the NCI-H226 human Non-Small Cell Lung tumor cell line is measured as a screen for anti-cancer activity. Cells are grown in 96 well plates and exposed to the test compound for 48 hours. Compounds are tested at a single concentration, which is 10^-5 M for most compounds. The reported endpoint is percent growth (GI% or GIPRCNT), where numbers from 0 - 100% represent growth inhibition, and numbers from -100% - 0 represent cell death. […]
The panel holds about 83,000 compounds, 20% with a hit somewhere; the sample as a whole holds those more often. Calls of active or inactive are those of the source. Rule for the calls: active = growth percent below 10; inactive = the rest.
Respond only with the outcome that fits, drawn from true for active, false for inactive

[
  {
    "structure": "CC(C)C[C@H](NC(=O)CNC(=O)C[C@H]1O[C@@H]2OC3(C)CC[C@H]4[C@H](C)CC[C@@H]([C@H]1C)[C@@]24OO3)B(O)O",
    "category": "true"
  },
  {
    "structure": "C[C@H]1[C@@H](CC(=O)N[C@@H](Cc2coc3ccccc23)B(O)O)O[C@@H]2OC3(C)CC[C@H]4[C@H](C)CC[C@@H]1[C@@]24OO3",
    "category": "true"
  }
]

Shift focus to the following entry.
GET /call?item= C#CC[Se]C(=O)c1ccc(C(=O)[Se]CC#C)s1 returns the recorded outcome of this test.
false

###

# Test system: A549/ATCC NSCLC
# test summary: NCI-60 one-dose screen, 48 h
# test parameters: 10 µM
This is part of a sample that, as a whole, favours compounds with a hit. Of some 83,000 tested, about 20% had one in any assay. Active and inactive are the calls of the source. Rule for the calls: active = growth percent below 10; inactive = the rest.
// one of true (1) = active, false (0) = inactive, no free text

[
  {
    "molecule": "CC1=C(C=O)C2=C(C)C3(CC3)[C@@](C)(O)C(=O)C2=C1",
    "category": "false (0)"
  },
  {
    "molecule": "CCC[Se]C(=O)c1ccc(C(=O)[Se]CCC)s1",
    "category": "true (1)"
  },
  {
    "molecule": "C=CCN=C([Se])NC(=O)c1ccc2c(c1)OCO2",
    "category": "false (0)"
  },
  {
    "molecule": "CC(=C\\C(=O)Oc1ccc2c3c1OC1C(O)CCC4(O)C(C2)N(CC2CCC2)CCC314)/C=C1\\CCCc2ccccc21 (stereo unspecified)",
    "category": "false (0)"
  },
  {
    "molecule": "CC[C@]12C=CCN3CC[C@@]4(c5ccc(OC)cc5N(C)[C@H]4[C@@](O)(C(=O)OC)[C@@H]1OC(=O)CCC[P+](c1ccc(F)cc1)(c1ccc(F)cc1)c1ccc(F)cc1)[C@@H]32",
    "category": "false (0)"
  },
  {
    "molecule": "COC(=O)C[C@](O)(CCC(C)C)C(=O)O[C@@H]1C(OC)=C[C@]23CCCN2CCc2cc4c(cc2[C@H]13)OCO4",
    "category": "true (1)"
  },
  {
    "molecule": "COc1cc2cc(C(=O)N3C[C@@H](CCl)c4c3cc(OC(=O)N3CCN(C)[C@@H]5CSSC[C@H]53)c3ccccc43)[nH]c2c(OC)c1OC",
    "category": "true (1)"
  },
  {
    "molecule": "C[C@H]1[C@H](OC(=O)CCC(=O)N(CCCc2cn(-c3ccc(C#N)cc3)nn2)CCNc2ccnc3cc(Cl)ccc23)O[C@@H]2OC3(C)CC[C@H]4[C@H](C)CC[C@@H]1[C@@]24OO3",
    "category": "false (0)"
  },
  {
    "molecule": "C#CC[Se]C(=O)c1ccc(C(=O)[Se]CC#C)s1",
    "category": "false (0)"
  },
  {
    "molecule": "O=C(/C=C/c1ccco1)c1nc2ccccc2n1Cc1ccc(Br)cc1",
    "category": "false (0)"
  }
]

Per the records of this test, what outcome belongs to CC[C@]12C=CCN3CC[C@@]4(c5ccc(OC)cc5N(C)[C@H]4[C@@](O)(C(=O)OC)[C@@H]1OC(=O)CCCC[P+](c1ccc(OC)cc1)(c1ccc(OC)cc1)c1ccc(OC)cc1)[C@@H]32 ?
true (1)

Same again, this time with O=C(NCCCCC(c1ccc(F)cc1)c1ccc(F)cc1)Nc1ccc([N+](=O)[O-])c(C(F)(F)F)c1
true (1)
